This collection of values is drawn from ChEMBL document CHEMBL2311459.

Items are presented alongside their recorded selectivity ratio.
assay.overview: Therapeutic index, ratio of cytotoxicity against human MT4 cells to antiviral activity against HIV
Format: cell-based
experimental.setup: read-out: TI

# compound.smiles, selectivity ratio
data = [
    ("O=C(NCCO)c1c(O)c2ncc(Cc3ccc(F)cc3)cc2[nH]c1=O", "> 250"),
    ("Cn1c(=O)c(C(=O)NCCO)c(O)c2ncc(Cc3ccc(F)cc3)cc21", "> 2000"),
    ("C[C@H](CO)NC(=O)c1c(O)c2ncc(Cc3ccc(F)cc3)cc2[nH]c1=O", "> 400"),
    ("Cn1c(=O)c(C(=O)NCCN2CCNC2=O)c(O)c2ncc(Cc3ccc(F)cc3)cc21", 1620),
    ("C[C@H](CO)NC(=O)c1c(O)c2ncc(Cc3ccc(F)cc3)cc2n(C)c1=O", "> 12500"),
]
